Target desc: Cytochrome P450 2A6 (Homo sapiens, UniProt P11509); note: in other assays of this panel Not Active means under 50% inhibition at 10 µM
Sequence (P11509 whole entry): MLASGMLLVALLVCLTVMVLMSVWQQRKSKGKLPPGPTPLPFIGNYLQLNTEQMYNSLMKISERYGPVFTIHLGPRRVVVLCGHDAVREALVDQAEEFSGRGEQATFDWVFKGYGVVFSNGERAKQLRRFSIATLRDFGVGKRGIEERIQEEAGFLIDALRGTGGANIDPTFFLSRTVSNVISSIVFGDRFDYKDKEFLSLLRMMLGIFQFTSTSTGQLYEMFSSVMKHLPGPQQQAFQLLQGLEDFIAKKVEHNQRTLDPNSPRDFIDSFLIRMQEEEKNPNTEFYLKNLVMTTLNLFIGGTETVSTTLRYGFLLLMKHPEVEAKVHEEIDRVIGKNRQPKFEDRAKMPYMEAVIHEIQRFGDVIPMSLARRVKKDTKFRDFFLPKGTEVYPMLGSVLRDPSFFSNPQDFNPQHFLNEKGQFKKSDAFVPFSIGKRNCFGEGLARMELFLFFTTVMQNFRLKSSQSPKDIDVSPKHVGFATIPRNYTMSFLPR
Test parameters: bti-tn-5b1-4
Experimental endpoint: Ki

Example entries begin here.
Cc1cc2cc3c(C)cc(=O)oc3c(C)c2o1	Not Active
O=C1CCC(N2C(=O)c3ccccc3C2=O)C(=O)N1 (stereo unspecified) [THALIDOMIDE]	Not Active
CC1(C)O[C@@H]2C[C@H]3[C@@H]4C[C@H](F)C5=CC(=O)C=C[C@]5(C)[C@@]4(F)[C@@H](O)C[C@]3(C)[C@]2(C(=O)CO)O1 [FLUOCINOLONE ACETONIDE]	Not Active
ClC(Cl)Cl [CHLOROFORM]	Not Active
N=C(Nc1ccccc1)Nc1ccccc1	Not Active

CC(C)(C)c1ccc(C(O)CCCN2CCC(C(O)(c3ccccc3)c3ccccc3)CC2)cc1 (stereo unspecified) has a reported Ki of Not Active

"O=c1ccc2ccccc2o1" has a reported Ki of Not Active

COCCCOc1ccnc(C[S+]([O-])c2nc3ccccc3[nH]2)c1C (stereo unspecified) has a reported Ki of Not Active

"CC(=O)Nc1ccc(O)cc1" has a reported Ki of Not Active

CC(C)CC(N(C)C)C1(c2ccc(Cl)cc2)CCC1 (stereo unspecified) has a reported Ki of Not Active

"CC/C(=C(/CC)c1ccc(O)cc1)c1ccc(O)cc1" has a reported Ki of Not Active

----------
Target desc: Alpha-2A adrenergic receptor (Homo sapiens); note: in other assays of this panel Not Active means under 50% inhibition at 10 µM
Sequence (P08913 whole entry): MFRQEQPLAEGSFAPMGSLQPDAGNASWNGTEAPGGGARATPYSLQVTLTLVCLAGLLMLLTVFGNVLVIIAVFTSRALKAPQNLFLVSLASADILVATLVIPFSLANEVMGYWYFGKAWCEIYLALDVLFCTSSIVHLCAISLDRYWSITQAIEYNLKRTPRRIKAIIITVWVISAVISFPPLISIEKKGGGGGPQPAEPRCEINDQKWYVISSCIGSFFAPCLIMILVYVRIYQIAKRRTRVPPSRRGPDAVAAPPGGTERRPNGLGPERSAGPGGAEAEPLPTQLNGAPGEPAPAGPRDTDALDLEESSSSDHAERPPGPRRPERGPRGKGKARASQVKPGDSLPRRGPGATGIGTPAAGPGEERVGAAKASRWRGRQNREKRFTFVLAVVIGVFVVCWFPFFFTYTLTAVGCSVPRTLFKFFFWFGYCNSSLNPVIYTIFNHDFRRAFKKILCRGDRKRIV
Type: cell membranes, Sf9, Membrane
Test parameters: read-out: IC50
IC50 by entry:
Note: unit µM is implicit; provide only the numeric part.

Example entries begin here.
CN(C)c1ccc(C(=C2C=CC(=[N+](C)C)C=C2)c2ccc(N(C)C)cc2)cc1.[Cl-] [GENTIAN VIOLET]	0.536
S=C=Nc1cccc2ccccc12 [1-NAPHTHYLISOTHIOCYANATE]	6.27

Please turn your attention to the following entry.
CC(=O)N1CCN(c2ccc(OCC3COC(Cn4ccnc4)(c4ccc(Cl)cc4Cl)O3)cc2)CC1 (stereo not drawn) [KETOCONAZOLE] has a reported IC50 of 19.8

----------
Method description: DRUGMATRIX: Sodium/nucleoside co-transporter radioligand binding (ligand: nitrobenzylthioinosine)
Type: cell membranes, Cavia porcellus, Dunkin-Hartley, Cerebral cortex, Membrane
Test parameters: Not Active = under 50% inhibition at 10 µM
Experimental endpoint: Ki

Example entries begin here.
CC(=O)CC(c1ccccc1)c1c(O)c2ccccc2oc1=O (stereo not given)	Not Active
CCOC(=O)C1=C(C)NC(C)=C(C(=O)OC)C1c1cccc([N+](=O)[O-])c1 (stereo not given)	Not Active
CN1C(=O)COc2c(C(=O)NC3CN4CCC3CC4)cc(Cl)cc21 (stereo not given)	Not Active
COc1ccc2c(c1)[C@]13CCCC[C@@H]1[C@H](C2)N(C)CC3	Not Active
CCCCOc1ccc(OCCCN2CCOCC2)cc1	Not Active
CCCC(CCC)C(=O)O	Not Active

CCCC(=O)Nc1ccc(OCC(O)CNC(C)C)c(C(C)=O)c1 (stereo not given) has a reported Ki of Not Active

CC(C)CC(N(C)C)C1(c2ccc(Cl)cc2)CCC1 (stereo not given) has a reported Ki of Not Active

N=C(N)NC(=O)c1nc(Cl)c(N)nc1N [AMILORIDE] has a reported Ki of Not Active

CC1(C)O[C@@H]2C[C@H]3[C@@H]4C[C@H](F)C5=CC(=O)C=C[C@]5(C)[C@H]4[C@@H](O)C[C@]3(C)[C@]2(C(=O)CO)O1 [FLUNISOLIDE] has a reported Ki of Not Active
